Data origin: patent US20220177583A1

Target Of Assay: CLDN3/4 endogenously expressed on LS513 and MCF7 cells
Test Protocol: FACS dose curve, labelled mAb, MCF7 cells
Hi there, I'd appreciate the recorded pEC50 for every entry that follows.
One number for each entry, as −log10 of the molar value.

Binder	Observable	Measured Result
AB5 (antibody, V domains shown) VH: EVQLQQSGPELVKPGASVKMSCKASGYIFTHYIMHWVKQKPGQGLEWIGCINPYNDGTKYNEKFKGKATLTSDKSSSTAYMELSSLTSEDSAVYYCARYYGYPYYSMDYWGQGTSVTVSS VL: DVLMTQTPLSLPVSLGDQPSISCRSSQSIVHSNGNTYLDWYLQKPGQSPKLLIYKVSNRFSGVPDRFSGSGSGTDFTLKISRVEAEDLGVYYCFQGSHVPFTFGSGTRLEIK	pEC50	5.83

(Q) Name the recorded pEC50 of the item AB9 (antibody, V domains shown) VH: EVQLQQSGPELVKPGASVKMSCKASGYRFTDYNMHWVKQSHGKSLEWIGYINPNNGGTNYNQNFKGKATLTVNKSSSTAYMELRSLTSEDSAAYYCARDYLYFFDCWGQGTTLTVSS VL: DIQMTQSPASQSASLGESVTITCLASQTIGTWLAWYQQKPGKSPQLLIYAAASLADGVPSRFSGSGSGTRFSFKISSLQAEDFVSYYCQQLYSIPRTFGGGTKLEIK in your answer.
(A) 5.30
